- method.notes: MTT assay (cytotoxicity), 22Rv1 cells
- Assay type: cell-based
- condition.notes: human, 22Rv1 cells, 72 h, Table 2.5
experimental.endpoint: IC50 at 72 h (µM)
Give just the number in µM; leave the unit off.

State its IC50 at 72 h for this molecule: `CC/C=C(\C)CN(C(=O)N/C=C/c1cc(C(F)(F)F)cc(C(F)(F)F)c1)c1ccc(C#N)nc1`
7.3

----------
- method.notes: MTT assay (72 h), liver hepatocellular carcinoma cell line of Table 6.1
- Type: cell-based
- condition.notes: human, HepG2 cells (liver hepatocellular carcinoma), 72 h treatment, read-out: Cytotoxicity (IC50, μM) HepG2
experimental.endpoint: IC50 at 72 h (µM)
Give just the number in µM; leave the unit off.

State its IC50 at 72 h for this compound: `O=C(Nc1cccc(C(F)(F)F)c1)Nc1ccc(NC(=O)c2ccccc2F)c(C(F)(F)F)c1`
1.2

State its IC50 at 72 h for this compound: `N#Cc1ccc(NC(=O)N/C=C/c2cccs2)cc1C(F)(F)F`
2.4

State its IC50 at 72 h for this compound: `O=C(Nc1cccc(C(F)(F)F)c1)Nc1ccc(C(=O)Nc2ccccc2F)c(C(F)(F)F)c1`
3.2
